# target-system: VEGFR2, unphosphorylated (Homo sapiens (Human), UniProt P35968)
# Sequence (P35968 whole entry, looked up): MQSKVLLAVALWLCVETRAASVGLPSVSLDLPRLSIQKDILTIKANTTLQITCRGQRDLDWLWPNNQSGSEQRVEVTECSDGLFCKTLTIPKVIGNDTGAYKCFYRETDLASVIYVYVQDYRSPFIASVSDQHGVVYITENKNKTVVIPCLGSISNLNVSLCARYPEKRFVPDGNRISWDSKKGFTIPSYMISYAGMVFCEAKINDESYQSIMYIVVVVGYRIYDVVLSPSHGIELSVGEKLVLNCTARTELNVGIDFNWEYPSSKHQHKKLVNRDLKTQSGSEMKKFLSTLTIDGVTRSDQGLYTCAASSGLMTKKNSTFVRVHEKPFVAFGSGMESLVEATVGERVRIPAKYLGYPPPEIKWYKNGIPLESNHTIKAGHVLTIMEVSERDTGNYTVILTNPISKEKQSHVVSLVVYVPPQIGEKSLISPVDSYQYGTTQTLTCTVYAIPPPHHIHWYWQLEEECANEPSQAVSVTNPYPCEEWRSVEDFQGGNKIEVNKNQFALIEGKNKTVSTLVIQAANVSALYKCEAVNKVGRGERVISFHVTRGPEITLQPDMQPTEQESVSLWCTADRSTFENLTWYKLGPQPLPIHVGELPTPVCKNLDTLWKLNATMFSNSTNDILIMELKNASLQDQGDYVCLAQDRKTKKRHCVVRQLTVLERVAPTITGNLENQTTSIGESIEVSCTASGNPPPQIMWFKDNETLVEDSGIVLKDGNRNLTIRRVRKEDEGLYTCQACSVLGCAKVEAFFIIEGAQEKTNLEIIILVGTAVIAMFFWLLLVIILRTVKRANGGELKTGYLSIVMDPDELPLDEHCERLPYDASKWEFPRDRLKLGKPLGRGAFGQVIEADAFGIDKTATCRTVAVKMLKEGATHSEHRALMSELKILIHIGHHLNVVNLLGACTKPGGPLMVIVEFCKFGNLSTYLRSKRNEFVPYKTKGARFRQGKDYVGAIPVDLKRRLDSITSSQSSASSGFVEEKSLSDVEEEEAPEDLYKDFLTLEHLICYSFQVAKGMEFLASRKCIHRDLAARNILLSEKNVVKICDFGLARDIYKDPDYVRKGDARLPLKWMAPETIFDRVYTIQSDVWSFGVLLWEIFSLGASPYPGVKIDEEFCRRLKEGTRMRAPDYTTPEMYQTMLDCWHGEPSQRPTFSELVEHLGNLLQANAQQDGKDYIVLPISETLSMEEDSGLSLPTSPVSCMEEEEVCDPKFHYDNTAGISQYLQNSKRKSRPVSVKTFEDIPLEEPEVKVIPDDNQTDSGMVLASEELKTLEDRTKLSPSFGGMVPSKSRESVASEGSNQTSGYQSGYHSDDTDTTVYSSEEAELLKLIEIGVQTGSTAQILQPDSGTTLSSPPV
# test-method-notes: VEGFR ADP GLO assay
# condition-info: 5 nM VEGFR2, 1.2 mM ATP, 1 mg/mL Srctide, 180 min
pIC50: −log10 of the molar value.
What pIC50 was measured for each of the following?

Exercise: Return pIC50 (reported value) for this compound: `Cc1ncc(C(=O)NCCN2CCC3(CC2)COC3)cc1Nc1nn(C)c2nc(Nc3cnn(C)c3)ncc12`
Solution: < 5.12

Exercise: Give recorded pIC50. `COC1CN(CC(=O)Nc2cnc(C)c(Nc3nn(C)c4nc(Nc5cnn(C)c5)ncc34)c2)C1`
Solution: < 5.12

Exercise: Please list pIC50 recorded for the compound `Cc1nn(C)cc1Nc1ncc2c(Nc3cc(C(=O)NCCN4CCCC4(C)C)cnc3C)nn(C)c2n1`
Solution: < 5.12

Exercise: Quick one: give measured pIC50 for `Cc1ncc(NC(=O)CN2CC(C)(C)C2)cc1Nc1nn(C)c2nc(Nc3cnn(C)c3)ncc12`
Solution: 5.29

* * *

# target-system: Tb-labeled inactive PDGFRβ (Homo sapiens (Human), UniProt P09619)
# Sequence (P09619 whole entry, looked up): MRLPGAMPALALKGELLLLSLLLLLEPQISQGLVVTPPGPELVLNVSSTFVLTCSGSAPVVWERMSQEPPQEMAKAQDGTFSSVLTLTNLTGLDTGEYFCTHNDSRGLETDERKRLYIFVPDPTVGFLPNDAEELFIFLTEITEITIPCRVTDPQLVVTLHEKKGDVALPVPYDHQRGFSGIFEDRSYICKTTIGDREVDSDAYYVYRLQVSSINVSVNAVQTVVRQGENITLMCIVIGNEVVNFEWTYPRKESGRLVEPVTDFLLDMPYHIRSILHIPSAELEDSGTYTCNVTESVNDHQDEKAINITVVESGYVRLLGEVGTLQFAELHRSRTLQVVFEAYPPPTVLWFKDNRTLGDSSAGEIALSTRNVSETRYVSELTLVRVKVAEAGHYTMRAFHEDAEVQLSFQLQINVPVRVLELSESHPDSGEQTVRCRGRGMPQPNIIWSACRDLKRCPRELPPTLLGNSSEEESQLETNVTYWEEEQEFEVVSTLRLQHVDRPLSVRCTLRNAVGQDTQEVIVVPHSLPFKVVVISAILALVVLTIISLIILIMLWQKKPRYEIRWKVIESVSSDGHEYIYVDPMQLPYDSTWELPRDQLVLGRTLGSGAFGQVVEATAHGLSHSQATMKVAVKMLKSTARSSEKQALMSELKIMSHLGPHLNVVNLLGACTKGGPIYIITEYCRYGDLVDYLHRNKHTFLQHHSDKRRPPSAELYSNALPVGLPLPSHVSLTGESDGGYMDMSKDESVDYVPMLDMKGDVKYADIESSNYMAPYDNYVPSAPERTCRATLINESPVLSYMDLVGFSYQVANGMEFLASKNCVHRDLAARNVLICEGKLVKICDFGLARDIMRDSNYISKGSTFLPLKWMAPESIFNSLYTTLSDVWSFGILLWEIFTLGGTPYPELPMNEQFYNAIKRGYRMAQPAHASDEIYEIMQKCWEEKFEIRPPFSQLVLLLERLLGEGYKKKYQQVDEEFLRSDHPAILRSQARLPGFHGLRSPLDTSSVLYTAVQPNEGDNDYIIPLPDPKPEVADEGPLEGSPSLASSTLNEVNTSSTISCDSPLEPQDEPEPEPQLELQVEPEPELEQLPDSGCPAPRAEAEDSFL
# test-method-notes: biochemical
# Type: binding
quantity-name: IC50 (nM)
Return type: number; implicit unit nM.

Exercise: Identify measured IC50 corresponding to `Cc1ncc(C(=O)NCCC2CCCCC2)cc1Nc1nn(C)c2nc(Nc3ccc(CC(=O)O)nc3)ncc12`
Solution: 3.6

Exercise: In one line, give reported IC50 of the entry `Cc1ncc(C(=O)NCCN2CCCC[C@H]2C)cc1Nc1nn(C)c2nc(Nc3cnn(C)c3)ncc12` .
Solution: 1.7

Exercise: // Input: `Cc1ncc(C(=O)NCCN2[C@H](C)CCC[C@@H]2C)cc1Nc1nn(C)c2cc(Nc3cnn(C)c3)ncc12` . Output its IC50 only.
Solution: 33.9

Exercise: Indicate its recorded IC50; the compound in question is `CC[C@H]1COCCN1CCNC(=O)c1cnc(C)c(Nc2nn(C)c3nc(Nc4cnn(C)c4)ncc23)c1`
Solution: 2.6

* * *

# target-system: PDGFRβ (Rattus norvegicus (Rat))
# Sequence (Q05030 whole entry, looked up): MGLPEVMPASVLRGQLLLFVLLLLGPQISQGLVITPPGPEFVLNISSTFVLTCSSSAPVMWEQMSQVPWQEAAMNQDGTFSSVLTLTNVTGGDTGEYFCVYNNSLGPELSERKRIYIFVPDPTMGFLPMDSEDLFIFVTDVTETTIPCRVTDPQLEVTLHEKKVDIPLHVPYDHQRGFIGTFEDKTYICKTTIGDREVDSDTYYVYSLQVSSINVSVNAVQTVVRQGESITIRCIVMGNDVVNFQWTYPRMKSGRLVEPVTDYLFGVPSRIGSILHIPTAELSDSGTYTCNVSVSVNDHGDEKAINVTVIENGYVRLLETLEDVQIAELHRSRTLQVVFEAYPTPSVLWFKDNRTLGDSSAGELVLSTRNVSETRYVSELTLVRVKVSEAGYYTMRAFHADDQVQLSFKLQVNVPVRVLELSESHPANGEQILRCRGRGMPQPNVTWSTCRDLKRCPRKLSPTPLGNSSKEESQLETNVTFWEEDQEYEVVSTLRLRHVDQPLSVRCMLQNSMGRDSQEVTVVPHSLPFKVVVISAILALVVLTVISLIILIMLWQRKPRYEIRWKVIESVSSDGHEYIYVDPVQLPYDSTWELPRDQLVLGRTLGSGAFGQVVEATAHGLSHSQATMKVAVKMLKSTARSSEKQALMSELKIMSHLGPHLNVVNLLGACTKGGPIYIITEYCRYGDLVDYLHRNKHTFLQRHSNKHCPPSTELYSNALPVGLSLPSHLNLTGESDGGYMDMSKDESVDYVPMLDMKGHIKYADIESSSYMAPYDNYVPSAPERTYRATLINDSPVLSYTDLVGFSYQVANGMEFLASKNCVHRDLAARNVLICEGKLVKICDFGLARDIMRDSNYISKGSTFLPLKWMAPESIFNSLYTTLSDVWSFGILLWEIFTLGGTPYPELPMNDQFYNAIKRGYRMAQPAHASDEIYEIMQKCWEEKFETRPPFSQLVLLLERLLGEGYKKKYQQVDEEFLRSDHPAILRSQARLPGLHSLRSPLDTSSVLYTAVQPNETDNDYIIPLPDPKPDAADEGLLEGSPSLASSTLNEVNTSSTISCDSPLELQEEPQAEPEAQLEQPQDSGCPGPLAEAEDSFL
# test-method-notes: PDGFRβ Cellular Assay (PDGFRb P-Y751 HTRF, PDGF-BB stimulated A10 cells)
# Type: cell-based
# condition-info: A10 cells, 3 hours compound, 15 ng/mL PDGFbb for 10 minutes; read-out: PDGFR Cellular IC50
For each entry below, report its log10 of IC50 value.
Please interpret these as log10 of IC50 where IC50 is in µM.

Exercise: For the compound `COC1CCN(CC(=O)Nc2cnc(C)c(Nc3nn(C)c4nc(Nc5cnn(C)c5)ncc34)c2)CC1` , give its measured log10 of IC50 value.
Solution: -2.13

Exercise: For the compound `Cc1ncc(C(=O)NCCN2CCCC2(C)C)cc1Nc1nn(C)c2nc(Nc3cncc(C(N)=O)c3)ncc12` , report log10 of IC50.
Solution: 0.73

Exercise: Identify log10 of IC50 associated with the compound `Cc1ncc(C(=O)NCCC2CCCCC2)cc1Nc1nn(C)c2nc(Nc3ccc(CC(=O)O)cc3)ncc12`
Solution: 0.37

Exercise: Could you please provide reported log10 of IC50 for `COCCCN(CCNC(=O)c1cnc(C)c(Nc2nn(C)c3nc(Nc4cnn(C)c4)ncc23)c1)C1CCC1` ? Thanks!
Solution: -1.97

Exercise: Name the recorded log10 of IC50 of the item Cc1cc(C(=O)NCCN2CC3COCC3C2)sc1Nc1nn(C)c2nc(Nc3cnn(C)c3)ncc12 (stereo not shown) in your answer.
Solution: -1.06

Exercise: Return log10 of IC50 for the following compound: `Cc1ncc(C(=O)NCCN(C)C2CCCC2)cc1Nc1nn(C)c2nc(Nc3cncnc3)ncc12`
Solution: -1.44

Exercise: Tell me log10 of IC50 reported for `Cn1cc(Nc2ncc3c(Nc4cc(C(=O)NCCN5CCCC5(C)C)ccc4F)nn(C)c3n2)cn1`
Solution: -2.44

Taken from patent US20240360134A1.
